System: Caco-2
Assay: Antiproliferative activity against human Caco-2 cells assessed as cell viability by MTT assay after 48 hrs
Type: functional
Conditions: Homo sapiens, Caco-2, 48 h; read-out: IC10
measurementName: IC10 (µM)
Give bare numbers, in µM.

c1ccc(C2OC(c3ccc(OCCCN4CCN(C(c5ccccc5)c5ccccc5)CC4)cc3)OC2c2ccccc2)cc1 (stereo not drawn) | 16.4
CN1CCN(CCCOc2ccc(C3O[C@H](c4ccccc4)[C@@H](c4ccccc4)O3)cc2)CC1 | 20.4

Data request: Entry under review: CN1CCN(CCCOc2ccc(C3OC(c4ccc(F)cc4)C(c4ccc(F)cc4)O3)cc2)CC1 (stereo not drawn) . Reported IC10?
Data returned: 18.8
